# System: canarygrass (Phalaris minor)
# run-description: Test C pre-/postemergence plant response
# Type: in vivo
# experimental-context: Preemergence, 8 g ai/ha; scale 0 to 100 (0 no effect, 100 complete control)
Each entry below carries its reported Plant response rating, Canarygrass.

{"compound": "Cc1cc(-c2ccc(Cl)cc2)nn1-c1c(OS(=O)(=O)c2ccc(Cl)s2)cnn(C)c1=O", "Plant response rating, Canarygrass": 0}
{"compound": "Cc1cc(-c2ccc(Cl)cc2)nn1-c1c(OC(=O)c2cccs2)cnn(C)c1=O", "Plant response rating, Canarygrass": 0}
{"compound": "Cc1cc(-c2ccc(Cl)cc2)nn1-c1c(OC(=O)CC(C)C)cnn(C)c1=O", "Plant response rating, Canarygrass": 15}

Next compound, Plant response rating, Canarygrass to be filled in.
Exercise: Query (compound): `CCOC(=O)Oc1cnn(C)c(=O)c1-n1nc(-c2ccc(Cl)cc2)cc1C` ; field requested: Plant response rating, Canarygrass
Key: 0
